- System: Italian ryegrass
- assayExplanation: Test C preemergence
- Format: in vivo, Lolium multiflorum
- appliedConditions: 125 g ai/ha, preemergence; scale 0 (no effect) to 100 (complete control)
observedProperty: Ryegrass, Italian plant response rating
# respond with the number and nothing more

Problem: Need Ryegrass, Italian plant response rating, item N#Cc1cccc(Oc2ncc(Cl)cn2)c1-n1cc(I)cn1
Solution: 75

Problem: Moving on to N#Cc1cnn(-c2c(C#N)cccc2Oc2ncc(F)cn2)c1
Solution: 60

Problem: Would you mind doing CCCOc1cnn(-c2c(C#N)cccc2Oc2ncc(Cl)cn2)c1 as well?
Solution: 50

Problem: Also check N#Cc1cn(-c2c(Br)cccc2Oc2ncc(Cl)cn2)nn1
Solution: 35

Problem: For CCOc1cn(-c2c(Br)cccc2Oc2ncc(Cl)cn2)nn1 then?
Solution: 5

Problem: Same thing, different compound: N#Cc1cccc(Oc2ncc(F)cn2)c1-n1cc(Cl)cn1
Solution: 55

Problem: Another compound to look at: Fc1cccc(Oc2ncc(Cl)cn2)c1-n1cc(I)cn1
Solution: 70

Problem: Record: Cc1cnc(Oc2cccc(C#N)c2-n2cc(I)cn2)nc1
Solution: 15

----------
- Test system: ragweed
- assayExplanation: Test A postemergence
- Assay type: in vivo, Ambrosia elatior
- appliedConditions: 125 g ai/ha, 0 to 100 scale where 0 is no effect and 100 is complete control
observedProperty: Ragweed plant response rating
Form: value (number only, do not type unit).

Problem: // Ragweed plant response rating lookup, key: Clc1cnc(Oc2cccc(Br)c2-n2cc(Br)nn2)nc1 [Compound 129]
Solution: 80

Problem: Next entry: FCc1cccc(Oc2ncc(Br)cn2)c1-n1cc(Br)cn1 [Compound 125]
Solution: 10

Problem: Try the molecule CC(C)Oc1cnn(-c2c(Br)cccc2Oc2ncc(F)cn2)c1 [Compound 156]
Solution: 40

Problem: Would you kindly repeat that for CCCOc1cnn(-c2c(C#N)cccc2Oc2ncc(Cl)cn2)c1 [Compound 150] ?
Solution: 20

Problem: Then CC(C)Oc1cnn(-c2c(Br)cccc2Oc2ncc(Cl)cn2)c1 [Compound 148] ?
Solution: 20

Problem: Also check COc1cnn(-c2c(F)cccc2Oc2ncc(Cl)cn2)c1 [Compound 121]
Solution: 40

----------
Can you tell me Goosegrass plant response rating for the items I'm about to list?
- Test system: goosegrass
- assayExplanation: Test E preemergence
- Type: in vivo, Eleusine indica
- appliedConditions: 31 g ai/ha, scale 0 to 100 (0 no effect, 100 complete control)
// no unit string in output, number only

Problem: Test system goosegrass; read-out Goosegrass plant response rating; what value for FC(F)(F)c1cnn(-c2ccccc2Oc2ncc(Cl)cn2)c1 [Compound 16] ?
Solution: 35

Problem: Thanks! And N#Cc1cnn(-c2c(C#N)cccc2Oc2ncc(F)cn2)c1 [Compound 111] ?
Solution: 5

Problem: Another compound to look at: CCOc1cnn(-c2c(C#N)cccc2Oc2ncc(F)cn2)c1 [Compound 89]
Solution: 0

Problem: FC(F)(F)c1cnn(-c2ccccc2Oc2ncc(Br)cn2)c1 [Compound 18] ?
Solution: 0

Problem: Ok, now N#Cc1cccc(Oc2ncc(Br)cn2)c1-n1cc(I)cn1 [Compound 88]
Solution: 0

----------
- Test system: kochia
- assayExplanation: Test D postemergence
- Assay type: in vivo, Kochia scoparia
- appliedConditions: Bassia scoparia, post-emergence, 62 g ai/ha, scale 0 to 100 (0 no effect, 100 complete control), read-out: Plant response rating, Kochia
observedProperty: pest or weed control at 62 g/ha (%)
All answers are understood in %, so give the number only.

Problem: For FC(F)(F)c1cnn(-c2ccccc2Oc2ncc(Br)cn2)c1 , what is its reported pest or weed control at 62 g/ha?
Solution: 90

Problem: Same question, FC(F)(F)COc1cnn(-c2ccccc2Oc2ncc(Cl)cn2)c1 this time
Solution: 55

Problem: Same read-out for N#Cc1cccc(Oc2ncc(Br)cn2)c1-n1cc(C(F)(F)F)cn1 ?
Solution: 95

Problem: Could you do the same for FC(F)(F)c1cn(-c2ccccc2Oc2ncc(Cl)cn2)nn1 , please?
Solution: 90
